TESTED SYSTEM: Mu-type opioid receptor (Rattus norvegicus)
Sequence (P33535 whole entry): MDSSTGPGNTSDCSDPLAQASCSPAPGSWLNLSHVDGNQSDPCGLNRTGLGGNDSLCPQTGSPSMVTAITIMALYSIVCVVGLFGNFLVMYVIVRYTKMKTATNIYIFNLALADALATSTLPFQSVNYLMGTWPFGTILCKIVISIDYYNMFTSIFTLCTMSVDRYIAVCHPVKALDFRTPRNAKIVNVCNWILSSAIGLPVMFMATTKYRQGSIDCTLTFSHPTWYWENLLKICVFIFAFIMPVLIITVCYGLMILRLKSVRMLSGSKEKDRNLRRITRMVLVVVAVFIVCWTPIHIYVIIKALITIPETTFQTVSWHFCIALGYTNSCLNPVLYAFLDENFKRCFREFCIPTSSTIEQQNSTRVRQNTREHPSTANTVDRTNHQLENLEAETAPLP
PROTOCOL NOTES: Ability to displace [3H]DAMGO radioligand from Opioid receptor mu 1
Listing of recorded pKi by entry.
pKi here is simply -log10 of the concentration when that concentration is written in mol/L.

Worked examples follow.
CCN1CC[C@]23Cc4[nH]c5ccccc5c4C[C@@]2(O)[C@H]1Cc1ccc(OC)c(O)c13	6.10
COc1ccc2c(c1O)[C@]13CCN(C)[C@H](C2)[C@]1(O)Cc1c([nH]c2ccccc12)C3	5.55

Measured pKi, "CCN1CC[C@]23Cc4[nH]c5ccccc5c4C[C@H]2[C@H]1Cc1ccc(OC)c(O)c13" : 5.87

The recorded pKi for entry "COc1ccc2c(c1O)[C@]13CCN(CC4CC4)[C@H](C2)[C@]1(O)Cc1c([nH]c2ccccc12)C3" equals 5.73

Short answer for "COc1ccc2c(c1O)[C@]13CCN(C)[C@H](C2)[C@@H]1Cc1c([nH]c2ccccc12)C3" : pKi was 5.55

---

Listing: Selectivity ratio of selected compounds
TESTED SYSTEM: Opioid receptors; delta & kappa (Homo sapiens) (UniProt P41145+P41143)
Sequence (P41143 whole entry, looked up): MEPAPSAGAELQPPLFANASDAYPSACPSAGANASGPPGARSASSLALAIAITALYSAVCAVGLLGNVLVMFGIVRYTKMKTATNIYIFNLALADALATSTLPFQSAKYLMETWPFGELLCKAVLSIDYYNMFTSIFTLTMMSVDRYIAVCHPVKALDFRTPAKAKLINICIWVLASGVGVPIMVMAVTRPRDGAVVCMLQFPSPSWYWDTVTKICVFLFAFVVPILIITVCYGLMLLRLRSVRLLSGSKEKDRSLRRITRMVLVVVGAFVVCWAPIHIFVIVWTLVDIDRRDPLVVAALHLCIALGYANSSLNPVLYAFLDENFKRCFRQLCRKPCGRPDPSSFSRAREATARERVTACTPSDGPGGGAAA
Sequence (P41145 whole entry, looked up): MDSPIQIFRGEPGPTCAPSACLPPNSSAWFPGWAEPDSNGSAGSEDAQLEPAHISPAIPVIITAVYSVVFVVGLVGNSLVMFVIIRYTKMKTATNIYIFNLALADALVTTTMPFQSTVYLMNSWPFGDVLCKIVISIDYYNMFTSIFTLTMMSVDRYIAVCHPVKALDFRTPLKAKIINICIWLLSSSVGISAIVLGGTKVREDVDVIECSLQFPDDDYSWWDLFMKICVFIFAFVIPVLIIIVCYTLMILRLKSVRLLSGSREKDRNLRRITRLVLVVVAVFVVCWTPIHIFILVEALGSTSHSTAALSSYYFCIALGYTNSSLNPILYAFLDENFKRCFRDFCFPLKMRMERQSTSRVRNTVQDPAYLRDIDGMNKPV
PROTOCOL NOTES: Selectivity Ratio of Ki of Kappa receptor/ Ki of Delta receptor
Type: protein assay
Just the number, please, no unit attached.

Solved cases (3 shown):
CCN1CC[C@]23Cc4[nH]c5ccccc5c4C[C@@]2(O)[C@H]1Cc1ccc(OC)c(O)c13	8
COc1ccc2c(c1O)[C@]13CCN(CC4CC4)[C@H](C2)[C@]1(O)Cc1c([nH]c2ccccc12)C3	145
COc1ccc2c(c1O)[C@]13CCN(C)[C@H](C2)[C@]1(O)Cc1c([nH]c2ccccc12)C3	31

Noted for "CCN1CC[C@]23Cc4[nH]c5ccccc5c4C[C@H]2[C@H]1Cc1ccc(OC)c(O)c13" : its Selectivity ratio reads 7

The compound identified as "COc1ccc2c(c1O)[C@]13CCN(C)[C@H](C2)[C@@H]1Cc1c([nH]c2ccccc12)C3" registered its Selectivity ratio at 72

---

TESTED SYSTEM: Mu-type opioid receptor (Cavia porcellus, UniProt P97266)
Sequence (P97266 whole entry): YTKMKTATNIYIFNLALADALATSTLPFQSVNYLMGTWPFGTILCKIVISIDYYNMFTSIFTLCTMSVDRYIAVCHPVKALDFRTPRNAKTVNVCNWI
VALUE TYPE: Ki (nM)
Could you give me the number in nM? Just the number is fine.

// Ki lookup, molecule = "Oc1ccc2c3c1O[C@H]1c4[nH]c5ccccc5c4C[C@@]4(O)[C@@H](C2)N(CC2CC2)CC[C@]314" , result: 3.2

---

TESTED SYSTEM: Delta-type opioid receptor (Rattus norvegicus, UniProt P33533)
Sequence (P33533 whole entry): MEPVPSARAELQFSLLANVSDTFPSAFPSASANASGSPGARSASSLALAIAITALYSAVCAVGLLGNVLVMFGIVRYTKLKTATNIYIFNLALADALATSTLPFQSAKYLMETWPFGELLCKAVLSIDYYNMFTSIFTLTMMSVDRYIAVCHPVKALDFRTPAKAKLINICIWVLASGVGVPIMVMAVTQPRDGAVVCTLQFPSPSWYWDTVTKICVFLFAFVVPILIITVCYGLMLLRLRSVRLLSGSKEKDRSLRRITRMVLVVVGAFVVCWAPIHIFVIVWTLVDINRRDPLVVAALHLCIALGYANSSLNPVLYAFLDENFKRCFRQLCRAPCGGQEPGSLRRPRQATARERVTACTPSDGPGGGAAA
PROTOCOL NOTES: Binding affinity towards Opioid receptor delta 1 by the displacement of [3H]DADLE radioligand in rat brain membranes
Format: cell membranes
VALUE TYPE: Ki (nM)
Numeric answer only, unit nM assumed.

Note to self: Ki recorded for "COc1ccc2c(c1O)[C@]13CCN(CC4CC4)[C@H](C2)[C@@H]1Cc1c([nH]c2ccccc12)C3" was 7

---

# key: entry, value: Selectivity ratio
TESTED SYSTEM: Opioid receptors; mu & delta (Homo sapiens) (UniProt P41143+P35372)
Sequence (P35372 whole entry, looked up, one chain of several): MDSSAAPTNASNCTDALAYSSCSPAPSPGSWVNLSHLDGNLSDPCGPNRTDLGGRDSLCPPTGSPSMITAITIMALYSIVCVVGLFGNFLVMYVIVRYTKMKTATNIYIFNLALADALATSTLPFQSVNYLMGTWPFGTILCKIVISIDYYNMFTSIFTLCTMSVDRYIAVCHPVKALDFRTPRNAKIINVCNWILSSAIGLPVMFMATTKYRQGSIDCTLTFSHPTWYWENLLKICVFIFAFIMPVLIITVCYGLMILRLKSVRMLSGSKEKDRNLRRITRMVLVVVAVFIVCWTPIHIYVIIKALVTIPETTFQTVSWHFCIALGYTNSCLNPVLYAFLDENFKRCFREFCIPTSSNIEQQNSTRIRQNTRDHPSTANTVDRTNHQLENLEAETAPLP
PROTOCOL NOTES: Selectivity Ratio of Ki of Mu receptor/ Ki of Delta receptor
Format: protein assay
The answer should be written as a number, with no unit following it.

Consider the following illustrative entries.
COc1ccc2c(c1O)[C@]13CCN(CC4CC4)[C@H](C2)[C@]1(O)Cc1c([nH]c2ccccc12)C3	85
COc1ccc2c(c1O)[C@]13CCN(C)[C@H](C2)[C@@H]1Cc1c([nH]c2ccccc12)C3	30
CCN1CC[C@]23Cc4[nH]c5ccccc5c4C[C@H]2[C@H]1Cc1ccc(OC)c(O)c13	3

Next up:
// Selectivity ratio value for "COc1ccc2c(c1O)[C@]13CCN(C)[C@H](C2)[C@]1(O)Cc1c([nH]c2ccccc12)C3" : 13
